The values you see were collected from PubChem BioAssay (NCATS).

Let's look at some molecules and their measured activation.
Target: Cellular tumor antigen p53 (Homo sapiens) (UniProt P04637)
Sequence (P04637 whole entry, looked up): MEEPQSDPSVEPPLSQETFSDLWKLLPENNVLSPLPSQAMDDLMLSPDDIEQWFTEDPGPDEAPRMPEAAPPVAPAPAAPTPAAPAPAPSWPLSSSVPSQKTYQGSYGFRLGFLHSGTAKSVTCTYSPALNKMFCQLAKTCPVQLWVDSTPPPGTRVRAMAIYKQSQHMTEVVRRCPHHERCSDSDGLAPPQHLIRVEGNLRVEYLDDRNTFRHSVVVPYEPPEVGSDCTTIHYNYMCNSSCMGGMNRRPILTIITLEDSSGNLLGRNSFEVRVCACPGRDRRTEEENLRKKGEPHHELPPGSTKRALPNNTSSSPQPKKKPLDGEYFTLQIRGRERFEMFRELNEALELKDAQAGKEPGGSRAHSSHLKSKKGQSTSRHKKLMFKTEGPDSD
Test: Primary qHTS for small molecule compounds that upregulate eGFP-tagged delta133p53alpha (in N-terminal) cells. (AID 2060322);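 further: cells pre-induced with doxycycline then dosed without doxycycline; series mostly up to about 56 µM; 0% = DMSO vehicle and 100% = reference activator; nearly all actives have a fitted effect of over 75% in size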
Conditions: NCI-H358 eGFP-delta133p53alpha fluorescence, 24 h; hits give high values
Records with an inconclusive call do not appear.
State just the number; it will be interpreted in %.

Worked cases, answers included:
{"Molecule": "CC(C)(C)C(=O)CN1C(=O)[C@H](NC(=O)Nc2cccc(C(=O)O)c2)CN(C2CCCCC2)c2ccccc21", "activation [%]": -7.67}
{"Molecule": "O=C1NC(Cc2ccc(O)cc2)C(=O)N2CCCC12 (stereo not given)", "activation [%]": -19.8}

INPUT: Would you please give the reported activation of COc1ccc(CCN(C)CCCOc2nsc(-c3ccccc3)n2)cc1OC with Cellular tumor antigen p53 (Homo sapiens) (UniProt P04637)?
OUTPUT: 13.4

INPUT: Would you please give the reported activation of CC1(C)CCC2(C(=O)OC3OC(COC4OC(CO)C(O)C(O)C4O)C(O)C(O)C3O)CCC3(C)C(=CCC4C5(C)CCC(OC6OCC(O)C(O)C6O)C(C)(C)C5CCC43C)C2C1O (stereo not given) with Cellular tumor antigen p53 (Homo sapiens) (UniProt P04637)?
OUTPUT: -11.5

INPUT: Would you please give the reported activation of COc1cc2nc(Cl)nc(N)c2cc1OC with Cellular tumor antigen p53 (Homo sapiens) (UniProt P04637)?
OUTPUT: -37.9
